Where these numbers come from: PubChem BioAssay (Tox21)

Item-by-item account of max activation
Biological target: Nuclear receptor subfamily 1 group I member 2 (Rattus norvegicus) (UniProt Q9R1A7)
Sequence (Q9R1A7 whole entry, looked up): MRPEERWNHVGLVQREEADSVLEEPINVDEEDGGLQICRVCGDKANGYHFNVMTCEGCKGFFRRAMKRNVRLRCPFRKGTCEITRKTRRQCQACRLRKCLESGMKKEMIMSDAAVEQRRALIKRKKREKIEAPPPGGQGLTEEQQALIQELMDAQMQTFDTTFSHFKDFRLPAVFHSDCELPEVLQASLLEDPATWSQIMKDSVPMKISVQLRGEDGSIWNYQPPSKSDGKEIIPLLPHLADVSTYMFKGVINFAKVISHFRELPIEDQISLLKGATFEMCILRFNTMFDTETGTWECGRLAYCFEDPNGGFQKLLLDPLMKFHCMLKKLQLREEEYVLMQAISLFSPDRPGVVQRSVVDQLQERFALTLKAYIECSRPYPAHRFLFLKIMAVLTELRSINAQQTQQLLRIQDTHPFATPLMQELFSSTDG
Assay: Rat pregnane X receptor (rPXR) activation by small molecules, qHTS assay (AID 1346983); note: % is set by controls: 0 for no effect and ±100 for the full control effect
Conditions: rPXR luciferase reporter cells, One-Glo luminescence, 24 h; stronger effect = higher value
Results filed as inconclusive are left out.
OUTCOME_MEASURE: max activation (%)

{"MOLECULE": "COc1cc(C=C2CCC/C(=C\\c3ccc(O)c(OC)c3)C2=O)ccc1O", "UNIT_OF_MEASURE": "%", "QUANTITATIVE_READOUT": -7.88}
{"MOLECULE": "CCCSS/C(CCO)=C(\\C)N(C=O)Cc1cnc(C)nc1N", "UNIT_OF_MEASURE": "%", "QUANTITATIVE_READOUT": 9.56}
{"MOLECULE": "N[C@@H](CSSC[C@H](N)C(=O)O)C(=O)O", "UNIT_OF_MEASURE": "%", "QUANTITATIVE_READOUT": -1.39}
{"MOLECULE": "CC(CN(C)C)CN1c2ccccc2CCc2ccccc21 (stereo unspecified)", "UNIT_OF_MEASURE": "%", "QUANTITATIVE_READOUT": -1.19}
{"MOLECULE": "COCC(=O)O[C@]1(CCN(C)CCCc2nc3ccccc3[nH]2)CCc2cc(F)ccc2[C@@H]1C(C)C", "UNIT_OF_MEASURE": "%", "QUANTITATIVE_READOUT": -19.6}
{"MOLECULE": "C[n+]1c2cc(N)ccc2cc2ccc(N)cc21 (tested in a mixture with another compound)", "UNIT_OF_MEASURE": "%", "QUANTITATIVE_READOUT": -10.5}
